molecular target: Lysosomal acid glucosylceramidase (Homo sapiens, UniProt P04062)
Sequence (P04062 whole entry): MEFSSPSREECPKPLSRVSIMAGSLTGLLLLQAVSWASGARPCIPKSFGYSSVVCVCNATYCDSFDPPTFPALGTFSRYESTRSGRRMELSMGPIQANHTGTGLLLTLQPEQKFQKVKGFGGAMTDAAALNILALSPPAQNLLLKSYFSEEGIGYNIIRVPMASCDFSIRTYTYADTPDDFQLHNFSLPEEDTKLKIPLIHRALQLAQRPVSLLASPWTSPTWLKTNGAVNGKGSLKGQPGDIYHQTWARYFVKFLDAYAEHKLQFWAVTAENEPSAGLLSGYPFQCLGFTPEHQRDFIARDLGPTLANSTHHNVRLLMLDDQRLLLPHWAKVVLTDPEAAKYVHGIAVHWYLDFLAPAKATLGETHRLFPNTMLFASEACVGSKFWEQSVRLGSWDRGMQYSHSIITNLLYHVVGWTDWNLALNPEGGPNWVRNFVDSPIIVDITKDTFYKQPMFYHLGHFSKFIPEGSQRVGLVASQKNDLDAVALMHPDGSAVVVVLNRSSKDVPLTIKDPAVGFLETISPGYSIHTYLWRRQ
measured-quantity: pKi
Reminder that pKi is minus the log10 of a molar concentration.

[ask] Jot down pKi (Lysosomal acid glucosylceramidase (Homo sapiens, UniProt P04062)) of OCCC(O)CN1CCOCC1 (stereo unspecified) .
[reply] 3.19

###

system: Geobacillus stearothermophilus; assay: Inhibition of Bacillus stearothermophilus alpha-D-glucosidase at 1 mg/ml after 10 to 20 mins
Calls of active or inactive are those of the source. No cut-off for these calls is given here.
measured-quantity: inhibition

* CCCCN1C[C@@H](CO)O[C@H](OC)C1 | inactive
* COC(=O)C(Cc1ccc(O)cc1)N1C[C@@H](CO)O[C@H](OC)[C@H](O)C1 (stereo partly specified) | inactive
* COC(=O)C(Cc1ccccc1)N1C[C@@H](CO)O[C@H](OC)C1 (stereo partly specified) | inactive
* COC(=O)CN1C[C@@H](CO)O[C@H](OC)[C@H](O)C1 | inactive
* CO[C@@H]1CN(C)C[C@@H](CO)O1 | inactive

[ask] Please list inhibition recorded for the compound CO[C@@H]1CN(C[C@H]2O[C@H](OC)[C@H](O)[C@@H](O)[C@@H]2O)C[C@@H](CO)O1
[reply] 66%
